Reference for the values: ChEMBL document CHEMBL3507680

Assay: Human HepG2 cell viability assay in 384 well format
Assay type: toxicity, cell-based
Set-up: dose 125 nL, time 70.5 hour; concentration not given beside the values
Settings: HepG2 cells, read-out: Inhibition
readout name: cytotoxicity at 70.5 h (%)

CCN1CC(C(=O)NCCc2csc(-c3ccncc3)n2)CCC1=O (configuration not stated)    -5.21
CC(C)c1ocnc1C(=O)N1CCC(=O)Nc2cccnc21    -13.9
Cc1ccc(F)c(C(=O)N2CCC(Nc3ccc(C)nn3)CC2)c1    -2.35
Cc1cc(NC(=O)CN(C)C2CCCN(c3cccnn3)C2)on1 (configuration not stated)    23.1
c1cn(Cc2nnc(C3CCN(C4CCOCC4)CC3)n2C2CC2)cn1    -4.93
Cc1nn(C)c(C)c1C1CCCN1C(=O)CCNc1ncccn1 (configuration not stated)    -4.27
O=C(C1CCOC1)N1CCC2(CC1)CN(c1ncccn1)CCO2 (configuration not stated)    22.2
Cc1cc(CN2CCC(N(C)Cc3nnc(C4CC4)n3C)C2)on1 (configuration not stated)    -2.5
Cc1cc2nc(CN(C)c3ccc(Cl)cc3)cc(=O)n2o1    22
c1cncc(OCC2CN(Cc3nccs3)Cc3nccn3C2)c1 (configuration not stated)    -15.5
O=S(=O)(NCCc1ccccc1C(F)(F)F)N1CCOCC1    23.1
COc1ccccc1NC(=O)c1cnc(C2CCN(C(C)=O)C2)nc1C (configuration not stated)    -1.01
COc1cccc(CN(C)Cn2nc(C(C)(C)C)ccc2=O)c1    2.69
CC(C)C1CCC(N2CCN(CCCS(C)(=O)=O)CC2)CC1 (configuration not stated)    -3.77
CCN(Cc1ccc(N(C)C)cc1)S(=O)(=O)c1cc(Br)ccc1OC    -1.59
Cc1cc(C2CCCN2S(=O)(=O)c2cnn(C)c2)on1 (configuration not stated)    -6.62
COC(C)(C)CC(C)NC(=O)Nc1ccccn1 (configuration not stated)    -2.34

* * *

Collected cytotoxicity at 70.5 h values appear next to each entry.
Test: Human HepG2 cell viability assay in 384 well format
Format: toxicity, cell-based
Parameters: dose 125 nL, time 70.5 hour; concentration not given beside the values
Settings: HepG2 cells, read-out: Inhibition
readout name: cytotoxicity at 70.5 h (%)

Cn1cc(C2=NOC(C(=O)NC3(c4ccccc4F)CCCC3)C2)cn1 (configuration not stated)    12.6
COCCC1CN(c2nc(-c3ccccc3)nc3c2CCNC3)CCO1 (configuration not stated)    25.4
Cc1csc(C2CCCCN2C(=O)c2c[nH]c(C)n2)n1 (configuration not stated)    0.914
CN1CCC2(CC1)CN(C(=O)c1cnccn1)Cc1ccccc12    -5.07
Cc1ccc(O)c(CNC2CCc3nc(C)nn3C2)n1 (configuration not stated)    -0.718
Cc1cc(NC(=O)NCCc2ccc(S(N)(=O)=O)cc2)n(C)n1    -6.71
Cc1ncc(CNC(=O)CCc2c(C)noc2C)c(C2CCCN2C)n1 (configuration not stated)    -3.48
COc1ccc(Cc2c(O)nc(SC)n(-c3ccccc3)c2=O)cc1    12.6
Cc1ccc(CN2Cc3nnn(C)c3C(COCc3ccccn3)C2)s1 (configuration not stated)    -0.991
Cc1cccc(CN2CCc3[nH]nc(C(=O)N4CCNC(=O)C4)c3C2)n1    -10.5
Cc1cccc(N(CC(=O)N2CCCCC2)C(=O)C2CCCO2)c1 (configuration not stated)    2.3
CN(C)c1ncccc1CNC(=O)N1CCCC1CN1CCCC1 (configuration not stated)    24.9

* * *

Assay: Human HepG2 cell viability assay in 384 well format
Assay type: toxicity, cell-based
Design: dose 125 nL, time 70.5 hour; concentration not given beside the values
Details: HepG2 cells, read-out: Inhibition
Collected cytotoxicity at 70.5 h values appear next to each entry.
readout name: cytotoxicity at 70.5 h (%)

COC(=O)C1CCN(C(=O)Cn2ccc(-c3ccccc3)n2)CC1    -10.6
CCN1CC(CN(C)Cc2nc(-c3ccc(C)o3)oc2C)CC1=O (stereo not drawn)    -6.14
CCc1nccn1C1CCCN(C(=O)CCc2nc(C(C)C)no2)C1 (stereo not drawn)    -1.73

* * *

Experiment: Human HepG2 cell viability assay in 384 well format
Format: toxicity, cell-based
Set-up: dose 125 nL, time 70.5 hour; concentration not given beside the values
Conditions: HepG2 cells, read-out: Inhibition
readout name: cytotoxicity at 70.5 h (%)

Cc1ccc(S(N)(=O)=O)cc1C(=O)N1CCc2c(ncnc2N(C)C)C1    0.0385
Cc1nc(N2CCCCC2)ncc1-c1cc(O)nc(N2CCCCC2)n1    -0.353
CC(C)Oc1ccccc1-c1cc(CN)ccc1F    5.05
CC(C)N(CCO)C(=O)C1CCC(=O)N(CCc2cccc(F)c2)C1 (stereo not given)    -10
CCN(CC)C1CCN(c2nccc(C3CCCC3)n2)C1 (stereo not given)    -13.5

* * *

Collected cytotoxicity at 70.5 h values appear next to each entry.
Assay: Human HepG2 cell viability assay in 384 well format
Type: toxicity, cell-based
Design: dose 125 nL, time 70.5 hour; concentration not given beside the values
Conditions: HepG2 cells, read-out: Inhibition
readout name: cytotoxicity at 70.5 h (%)

O=C1CCCN1Cc1nnc2n1CCN(Cc1ccco1)CC2    -1.59
OCCCNc1nc(O)c2c(n1)-c1ccccc1CC21CCCCC1    -9.73
CN(C)C(=O)CN1CCC(c2c(C(N)=O)sc3ncccc23)C1 (stereo not given)    -5.25
CCc1cc(NCCNc2ccncc2C)n2nc(C)c(C)c2n1    -1.4
Cc1nc(CN2CCCC(NCc3cnn(C)c3)C2)no1 (stereo not given)    -8.69

* * *

Assay: Human HepG2 cell viability assay in 384 well format
Assay type: toxicity, cell-based
Parameters: dose 125 nL, time 70.5 hour; concentration not given beside the values
Conditions: HepG2 cells, read-out: Inhibition
Collected cytotoxicity at 70.5 h values appear next to each entry.
readout name: cytotoxicity at 70.5 h (%)

Cc1ccc(-c2noc(C3CCN3C(=O)c3ccn(C)n3)n2)s1 (configuration not stated)    1.02
CN(Cc1ccncc1)C1CC2(CCN(Cc3ccccn3)CC2)C1    -6.76
CN(C)CCN1C(=O)CO[C@@H]2CN(c3ncc(F)cn3)C[C@H]21    -6.29
Cc1cc(CN2C[C@H]3CC[C@@H]2CN(Cc2c(C)noc2C)C3)ccc1F    -5.96
O=C(COc1ccccc1)NS(=O)(=O)Cc1ccccc1    -1.17
CCC(C)NC(=O)NCc1cc2n(n1)CCCN(C1CCCCC1)C2 (configuration not stated)    4.95
Cc1cnc(CN2CCOC(CN(C)c3cccnn3)C2)cn1 (configuration not stated)    -0.738
COc1ccc(OC)c(C2SCC(=O)Nc3n[nH]cc32)c1 (configuration not stated)    -9.28
Cc1nccn1C1CCCN(C(=O)CCOCC(F)(F)F)C1 (configuration not stated)    17.2
CC(C)Cc1cc(NC(=O)c2ccc3[nH]nnc3c2)n(C)n1    14.7
N#Cc1nc(COc2ccc3c(c2)OCO3)oc1NC1CC1    -28.4
CCOc1c(OC)cc(/C=C/c2ncc(C(=O)NC)s2)cc1OC    -7.3

* * *

Test: Human HepG2 cell viability assay in 384 well format
Format: toxicity, cell-based
Design: dose 125 nL, time 70.5 hour; concentration not given beside the values
Details: HepG2 cells, read-out: Inhibition
Collected cytotoxicity at 70.5 h values appear next to each entry.
readout name: cytotoxicity at 70.5 h (%)

FC(F)(F)C1CN(Cc2cccc(OCc3ccccn3)c2)CCO1 (stereo not drawn)    8.84
CCN(CC)c1ccc(-c2nc(-c3cccc(OC)c3OC)no2)cn1    -7.4
Cc1cccc2c1nc(COCC(=O)O)n2-c1ccsc1    -4.32
CSc1cccc(CNC(=O)[C@H]2CNC[C@@H](C(=O)N3CCOCC3)C2)c1    -4.8
O=C(CSc1nncs1)N1CCN(Cc2ccc(Cl)cc2)CC1    1.53
Cc1nc(CN2CCCC(NCc3sccc3C)C2)no1 (stereo not drawn)    -2.7
CCc1cnc2c(c1NCc1ccncc1)c(=O)n(C)c(=O)n2C    -8.17
CCS(=O)(=O)NCCNCc1cc(F)ccc1Br    14.4
c1cnn(CC2CCCCN2Cc2cn3ccsc3n2)c1 (stereo not drawn)    -13.5
Cc1cc(NC(=O)C(C)N2CCN(c3nc(C)cs3)CC2)on1 (stereo not drawn)    -5.64
CC(C)c1nn(C)c(N(C)C)c1CNC(C)c1ccccc1F (stereo not drawn)    -1.04
COc1ccc(Cc2nc3c([nH]2)CC(C)(C)CNC3=O)cc1OC    -8.64
Cc1cncc(C(=O)N2CCCC(O)(CN3CCCC3)C2)c1 (stereo not drawn)    -19.8
CS(=O)(=O)CC1(CNc2ccc(C#N)c(C(F)(F)F)c2)CC1    -3.35
CCC(c1ccccc1)c1nn2c(CN(CC)CC)nnc2s1 (stereo not drawn)    -5.77
OCCc1cc(CC2(NCc3ccc(C(F)(F)F)cc3)COC2)no1    -6.19
CCCc1nnc(N2CCN(c3cccc(C)c3C)CC2)o1    -14.8
CC(CCN1CCOCC1)NC(=O)c1cccc(C(F)(F)F)c1F (stereo not drawn)    -5.66
